Values were extracted from PubChem BioAssay (NCI).

Readings of growth inhibition for the listed molecules
assay: NCI Yeast Anticancer Drug Screen. Data for the mec2-1 strain (AID 157); conditions: S. cerevisiae mec2-1 strain, at 50.0 µM, stronger effect = higher value
The panel holds about 79,000 compounds, 15% with a hit somewhere; the sample as a whole holds those more often.
The answer is to be given in %; state only the numeric part.

Worked cases, growth inhibition given:
O=C(Oc1ccc(C(=O)c2ccc(C(=O)c3ccc(OC(=O)c4cccc(Br)c4)cc3)cc2)cc1)c1cccc(Br)c1	7.15
CC(C)=CCN(N=O)c1ncnc2nc[nH]c12	31.1

Now for a further molecule.
# get_value(readout='growth inhibition', item= Cc1ccc(CNc2ccccc2)cc1 ) -6.45

====

experiment: NCI Yeast Anticancer Drug Screen. Data for the sgs1 mgt1 strain (AID 161);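 also: 0% = growth of cultures given vehicle only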; settings: S. cerevisiae sgs1 mgt1 strain, at 50.0 µM, stronger effect = higher value
Compounds without any hit were thinned out: in the full panel of roughly 79,000, 15% have a hit.
reportedEndpoint: growth inhibition (%)
State the answer as a number, implicitly in %.

Consider the following illustrative entries.
COC(=O)c1s/c(=N\C(=S)N(C)C)n(-c2ccccc2)c1C(=O)OC	-0.1
CCCCCC1CC[N-]CC1.CCCCCC1CC[N-]CC1.N#C[S-].N#C[S-].[Cu]	5
C=C(Br)C[N+](CC)(CC)CC	-9.4
CN(C)Cc1ccc(-c2cc3onc(-c4ccccc4)c3c(=O)n2C)cc1	-29.5
CCNCCN(CC)CC	-21.1

Sample O=C1c2cc3c(cc2CC12Cc1cc4c(cc1C2)CCC4)CCC3 — what was its growth inhibition? -8

====

List of growth inhibition values.
assay: NCI Yeast Anticancer Drug Screen. Data for the bub3 strain (AID 167); settings: S. cerevisiae bub3 mutant strain, at 50.0 µM, stronger effect = higher value
This is part of a sample that, as a whole, favours compounds with a hit. Of some 79,000 tested, about 15% had one in any assay. Where a SMILES comes first, the peptide text is derived from it. [ ]: non-standard residue; d: D form. The star is where a group is joined. ξ: configuration not given here. ξF = NC(Cc1ccccc1)C(=O)O; Cbz = O=C(OCc1ccccc1)*; Aib = CC(C)(N)C(=O)O; NHNH2 = NN*
Express your answer in %, writing the number without its unit.

# example entries with known answers
CC(C)(NC(=O)OCc1ccccc1)C(=O)NC(Cc1ccccc1)C(=O)NN (stereo not given) (Cbz-[Aib]-[ξF]-NHNH2)	15.4
COC(=O)CC12CCCC(C)(CC(=O)N1)C2 (stereo not given)	-4
Cc1cc(S(N)(=O)=O)c(SCc2nc(N)nc(N(C)C)n2)cc1Cl	-37.4
NC(=O)C(O)(c1ccc(Br)cc1)C(Cl)Cl (stereo not given)	11.6
COc1ccc(C(C#N)Cc2ccccc2)c([N+](=O)[O-])c1 (stereo not given)	0.45

Requested field: growth inhibition. Item: CCOC(=O)c1c(C)c2c(n1C)CC/C(=C\N1CCOCC1)C2=O 14.5

Looking for the measured growth inhibition of CC(C)=CC1C(C(=O)SCc2cc3c(cc2Br)OCO3)C1(C)C (stereo not given) , can you help? 5.6

====

Listing of recorded growth inhibition by entry.
test: NCI Yeast Anticancer Drug Screen. Data for the bub3 strain (AID 167); conditions: S. cerevisiae bub3 mutant strain, at 50.0 µM, stronger effect = higher value
This is part of a sample that, as a whole, favours compounds with a hit. Of some 79,000 tested, about 15% had one in any assay.
# output: bare number, implied unit %

Please review the following examples before continuing.
CCOC(=O)c1nc2c(n(O)c1=N)CCC/C2=N\O	3.8
C[N+]1(C)C2CC(=O)CC1C1CC12 (stereo not drawn)	12.1

Need growth inhibition, item CCNc1ncnc2c1cnn2C -2.8
